SYSTEM: hP2X7R (purinergic receptor P2X7, P2X7R) (Homo sapiens, UniProt Q99572)
Construct: homotrimer
Sequence (Q99572 1-595): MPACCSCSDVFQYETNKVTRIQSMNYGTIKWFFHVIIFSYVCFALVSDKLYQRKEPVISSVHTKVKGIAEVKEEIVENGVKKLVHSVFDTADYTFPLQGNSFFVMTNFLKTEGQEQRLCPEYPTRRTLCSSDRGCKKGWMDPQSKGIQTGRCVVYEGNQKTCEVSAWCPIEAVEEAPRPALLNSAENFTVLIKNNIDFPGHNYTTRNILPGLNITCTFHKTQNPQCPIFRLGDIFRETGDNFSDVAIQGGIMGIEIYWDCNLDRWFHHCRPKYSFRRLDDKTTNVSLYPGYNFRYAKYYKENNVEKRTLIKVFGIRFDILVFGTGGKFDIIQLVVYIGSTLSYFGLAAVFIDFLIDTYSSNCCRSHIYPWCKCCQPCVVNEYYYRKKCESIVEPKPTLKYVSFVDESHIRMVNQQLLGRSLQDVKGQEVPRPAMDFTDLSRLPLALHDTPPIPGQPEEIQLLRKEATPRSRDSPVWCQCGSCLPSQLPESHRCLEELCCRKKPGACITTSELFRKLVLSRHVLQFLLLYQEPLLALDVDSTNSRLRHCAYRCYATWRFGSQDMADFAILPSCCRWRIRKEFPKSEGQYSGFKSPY
PROTOCOL DESCRIPTION: ethidium bromide uptake (pore formation), flow cytometry, HEK-293T cells
MEASUREMENT CONTEXT: read-out: EB uptake IC50
METRIC NAME: IC50 (µM)
Report the figure in µM without appending any unit label.

Prompt: Any idea what its IC50 is? The compound is CC(Cc1cccc(C(F)(F)F)c1)C(=O)Nc1cccc(S(=O)(=O)NCCN)c1 (stereo not shown) [Z1456467176]
Completion: 3.42
